Measured GI50, listed per entry.
# Tested on: UO-31
# assay name: NCI tumour cell line growth inhibition, 48 h
Calls of active or inactive are those of the source. No stated cut-off is given here; in the data, active = GI50 up to about 1.1 µM and inactive = higher.

Answered examples (2):
>>> observed_result("COc1ccc(/C=C/C(=O)NCC(NC(=O)/C=C/c2ccc(OC)c(OC)c2)C(=O)O)cc1OC (stereo not given)")
"> 100 µM (inactive)"
>>> observed_result("N=C(N)NS(=O)(=O)c1ccc(Nc2c3ccccc3nc3c(C(=O)Nc4ccc(S(N)(=O)=O)cc4)cccc23)cc1")
"> 100 µM (inactive)"

Notebook: OCC1NC(CO)C(O)C1O (stereo not given) , GI50 read as > 100 µM (inactive)

Notebook: `O=c1c2ccccc2nc(-c2ccccc2)n1NC(=S)Nc1ccc(Cl)cc1` , GI50 read as 61.5 µM (inactive)

Notebook: C[C@@H]1CC[C@@]2(C)[C@H](C)/C(=C\COC(=O)/C=C/c3ccc(O)c(O)c3)CC[C@@]12C [NAVICULYL CAFFEATE] , GI50 read as 8.73 µM (inactive)

* * *

# System: Malme-3M
# assay name: NCI tumour cell line growth inhibition, 48 h
Calls of active or inactive are those of the source. Cut-off read from the data, not from the text of the source: active = GI50 up to about 1.1 µM and inactive = higher.
Measured GI50, listed per entry.

>>> observed_result("N#CCCC1(CCC#N)CCCCCCCCC(CCC#N)(CCC#N)C(O)C1O (centres undefined)")
"> 100 µM (inactive)"
>>> observed_result("C=CC1(c2ccc(-c3ccccc3)cc2)OCCO1")
"42.8 µM (inactive)"
>>> observed_result("CC[C@@H]1/C=C/C=C/C[C@H](C)[C@@H](O)[C@](C)(O)C(=O)[C@H](C)[C@@H](O)[C@H](C)C(=O)[C@H](C)[C@@H](O)[C@H](C)/C=C/C(=O)O[C@H]2[C@@H](C)[C@@H](CC1)O[C@@]1(CC[C@@H](C)[C@@H](CC(C)O)O1)[C@@H]2C (some centres undefined)")
"3.49 µM (inactive)"
>>> observed_result("c1ccc(C2=NN=C3C(c4ccccc4)=Nc4ccccc4N3C2)cc1")
"26 µM (inactive)"
>>> observed_result("O=C(CON1C(=O)c2ccccc2C1=O)c1ccccc1")
"21.1 µM (inactive)"
>>> observed_result("CCCCN(CCCC)CC(=O)c1ccc2cc(Cl)c3ccccc3c2c1")
"37.6 µM (inactive)"
>>> observed_result("CCOC(=O)c1ccc(-c2onc(C)c2Br)[nH]1")
"79.6 µM (inactive)"
>>> observed_result("O=c1[nH]c2ccc(CC(=S)N3CCN(c4ccccc4)CC3)cc2s1")
"13.5 µM (inactive)"

Response field GI50 (Malme-3M) for item `O=C(CN1c2ccccc2Sc2ccccc21)N1CCNCC1` : > 100 µM (inactive)

* * *

# Tested on: UACC-62
# assay name: NCI tumour cell line growth inhibition, 48 h
The source made the active and inactive calls. Cut-off read from the data, not from the text of the source: active = GI50 up to about 1.1 µM and inactive = higher.
// allowed return values: active, inactive

Worked set:
>>> class_assignment("CC1CC(N)=C(C#N)C1(C#N)C#N (stereo unspecified)")
"inactive"
>>> class_assignment("C=CC1ON(Cc2ccccc2)CCc2cc(OC)c(OC)cc21 (stereo unspecified)")
"inactive"
>>> class_assignment("Cc1cccc(CC(Cc2ccc(C)cc2C(=O)O)C(=O)O)c1 (stereo unspecified)")
"inactive"

[Q] What did the test return for `CC1(C)COC2=C(C1)C(=O)c1ccccc1C2=O` ?
[A] active

[Q] What did the test return for CC(C)=CC(=O)N(C)C1C2CN3CCC(O2)C13 (stereo unspecified) ?
[A] inactive

[Q] What did the test return for `COc1cc(/C=C2\CC/C(=C\c3cc(OC)c(O)c(OC)c3)C2=O)cc(OC)c1O` ?
[A] inactive

* * *

# System: SK-MEL-5
# assay name: NCI tumour cell line growth inhibition, 48 h
The source made the active and inactive calls. Cut-off read from the data, not from the text of the source: active = GI50 up to about 1.1 µM and inactive = higher.
attribute measured: GI50

Answered examples (4):
>>> observed_result("O=C1/C(=C\\c2cccs2)Oc2ccccc21")
"51.6 µM (inactive)"
>>> observed_result("CC1CC[P+](c2ccccc2)(c2ccccc2)c2c1ccc1ccccc21 (configuration not stated)")
"0.83 µM (active)"
>>> observed_result("Cc1cc2c([nH]c3ccccc32)c2c1OC(C)(C)C1C3CC(C)(C)Oc4c(C)cc5c6ccccc6n(c5c43)C21 (configuration not stated)")
"> 100 µM (inactive)"
>>> observed_result("C/C=C(\\CCOS(=O)(=O)c1ccc(C)cc1)[Si](C)(C)C")
"> 100 µM (inactive)"

Notebook: `COc1ccc([N+](=O)[O-])c2c(NCCCN(C)C)ccnc12` , GI50 read as 2.12 µM (inactive)

Notebook: `O=C(N/N=C\c1ccc(Cl)cc1)Nc1cccc2ccccc12` , GI50 read as 4.45 µM (inactive)

Notebook: `CCNC(=S)/N=c1\sc(NCC)nc2sc3c(c12)CCN(N1CCc2c(sc4nc(NCC)s/c(=N\C(=S)NCC)c24)C1)C3` , GI50 read as 31.8 µM (inactive)

Notebook: `CN(C)CCCCC1CCN(CC(=O)N2c3ccccc3NC(=O)c3ccccc32)CC1` , GI50 read as > 100 µM (inactive)

Notebook: COC(=O)[C@H]1[C@H]2C[C@@H]3c4[nH]c5cc(OC)ccc5c4CCN3C[C@H]2C[C@@H](OC(=O)c2cc(OC)c(OC)c(OC)c2)[C@@H]1OC [RESERPINE] , GI50 read as 15.7 µM (inactive)

Notebook: COc1cc2c(c3c1c(=O)c1ccccc1n3C)C=CC(C)(C)O2 [ACRONINE] , GI50 read as > 100 µM (inactive)

* * *

# Test system: MCF7
# assay name: NCI tumour cell line growth inhibition, 48 h
Active and inactive are the calls of the source. No stated cut-off is given here; in the data, active = GI50 up to about 1.1 µM and inactive = higher.
// allowed return values: Yes (active), No (inactive)

Worked set:
>>> class_assignment("C1CSCCSCSCCS1")
"No"
>>> class_assignment("COc1ccc(C(=O)CC(c2ccccc2)[C@H]2C(c3ccc(OC)cc3)=Nc3c(nc(SC)n(C)c3=O)NC2c2ccccc2)cc1 (stereo partly drawn)")
"No"

[Q] What did the test return for `Cc1ccc(S(=O)(=O)SC(C)(C)C)cc1` ?
[A] No

[Q] What did the test return for `c1ccc(C2=NN=C3C(c4ccccc4)=Nc4ccccc4N3C2)cc1` ?
[A] No

[Q] What did the test return for CCOC(=O)C1(O)C(=O)C2=C3C(=O)OC(C4OC(=O)c5c(c(O)c(O)c(O)c5C31)-c1c(cc(O)c(O)c1O)C(=O)OC1COC(=O)c3cc(O)c(O)c(O)c3-c3c(cc(O)c(O)c3O)C(=O)OC14)[C@@H]2O (stereo partly drawn) ?
[A] No

[Q] What did the test return for `COc1ccc2c(c1)-c1[nH]c3ccccc3c1CC2` ?
[A] No

[Q] What did the test return for `CN(C)C=O.O=C(Nc1nnn[nH]1)c1nc(O)cc(-c2ccccc2)n1` ?
[A] No

[Q] What did the test return for `O=C(O)Cn1ncn(NC(=O)Cc2ccccc2)c1=S` ?
[A] No

* * *

# Test system: KM12
# assay name: NCI tumour cell line growth inhibition, 48 h
Calls of active or inactive are those of the source. Cut-off read from the data, not from the text of the source: active = GI50 up to about 1.1 µM and inactive = higher.
attribute measured: GI50

Answered examples (4):
>>> observed_result("CCC(/C=C/c1ccccc1)=N\\N=C(\\C=C\\c1ccccc1)CC")
"> 100 µM (inactive)"
>>> observed_result("O=C(N/N=C\\c1ccc(Cl)cc1)Nc1cccc2ccccc12")
"2.61 µM (inactive)"
>>> observed_result("COC(=O)Cc1ccc(Oc2nc3ccccc3nc2-c2cccs2)cc1")
"> 100 µM (inactive)"
>>> observed_result("CC(C)n1c2c([n+](C)c1/C=C/c1ccccc1)C(=O)c1ccccc1C2=O")
"0.132 µM (active)"

Notebook: CC1=Nc2c(O)nc(S)nc2NC(c2c(Cl)cccc2Cl)C1 (stereo not given) , GI50 read as 1.75 µM (inactive)

Notebook: `O=C1C=CC(=O)c2cc(Sc3ccccc3)c(=O)ccc21` , GI50 read as 18.1 µM (inactive)

* * *

# Test system: K562
# assay name: NCI tumour cell line growth inhibition, 48 h
The source made the active and inactive calls. Cut-off read from the data, not from the text of the source: active = GI50 up to about 1.1 µM and inactive = higher.
Measured GI50, listed per entry.

>>> observed_result("c1cc(-c2ccc(-c3nc4ccc(C5=NCCN5)cc4s3)s2)ccc1C1=NCCN1")
"0.82 µM (active)"
>>> observed_result("CN1Cc2c(ccc3c2OCO3)[C@@H]2[C@H](O)Cc3cc4c(cc3[C@@H]21)OCO4")
"2.61 µM (inactive)"
>>> observed_result("CN(C)CCCNc1ccnc2c([N+](=O)[O-])cccc12")
"> 10 µM (inactive)"

Notebook: `O=C(O)CCCC#CCCCC(=O)O` , GI50 read as > 100 µM (inactive)

Notebook: CC1=Nc2c(O)nc(S)nc2NC(c2c(Cl)cccc2Cl)C1 (centres undefined) , GI50 read as 0.649 µM (active)

Notebook: `Cc1cn([C@@H]2C[C@](C)(CO)N(C)O2)c(=O)[nH]c1=O` , GI50 read as > 100 µM (inactive)

Notebook: `Cc1nn2c(=O)c([N+](=O)[O-])c(/C=C/c3ccccc3)nc2s1` , GI50 read as 2.56 µM (inactive)

Notebook: `O=C1/C(=N\O)S(=O)(=O)c2ccccc21` , GI50 read as > 100 µM (inactive)

Notebook: `COc1ccc2c(ccc3c(C(=O)NCCCN(C)CCCNC(=O)c4cn(C)c5c4ccc4cc(OC)ccc45)cn(C)c32)c1` , GI50 read as 0.403 µM (active)

Notebook: `COc1ccc([N+](=O)[O-])c2c(NCCCN(C)C)ccnc12` , GI50 read as 1.77 µM (inactive)

Notebook: [O-][S+](CCc1ccccc1)Nc1ccccc1 (centres undefined) , GI50 read as > 100 µM (inactive)

Notebook: `CC(C)(C)OC(=O)N1C(OP(=O)(Oc2ccccc2)Oc2ccccc2)=COc2cccnc21` , GI50 read as 44.9 µM (inactive)

Notebook: `Fc1ccc(/C(=N/Cc2ccccc2)N2CCOCC2)cc1` , GI50 read as > 100 µM (inactive)
